Values were extracted from PubChem BioAssay.

Task for the reader: assign each of the following molecules its reported inhibition.
# TESTED_TARGET: Pantothenate synthetase (Mycobacterium tuberculosis (strain ATCC 25618 / H37Rv)) (UniProt P9WIL5)
# Sequence (P9WIL5 whole entry, looked up): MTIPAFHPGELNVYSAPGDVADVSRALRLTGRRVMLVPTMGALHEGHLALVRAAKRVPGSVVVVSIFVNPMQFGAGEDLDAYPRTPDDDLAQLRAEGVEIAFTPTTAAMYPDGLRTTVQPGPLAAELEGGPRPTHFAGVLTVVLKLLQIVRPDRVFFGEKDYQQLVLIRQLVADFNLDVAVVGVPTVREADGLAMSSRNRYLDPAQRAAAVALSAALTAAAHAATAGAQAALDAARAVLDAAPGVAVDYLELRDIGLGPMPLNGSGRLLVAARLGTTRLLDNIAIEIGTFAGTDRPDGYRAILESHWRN
# TEST_SUMMARY: Coupled enzyme confirmation of inhibitors against recombinant Mtb PanC (AID 375);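 further: 0% = full reaction with vehicle and 100% = no enzyme background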
# CONDITION: coupled enzyme assay; at 10 µM, stronger effect = higher value
One number for each entry, in %.

The following molecules have reported results that may help.
COC(=O)[C@@H](N)Cc1ccc(O)cc1 : 0
O=C(CNC1CCCCCC1)Nc1ccc(S(=O)(=O)NC2CC2)cc1 : 2
COC(=O)c1[nH]c2c(c1C)C(=O)CC(c1cccs1)C2 (stereo unspecified) : 3
c1nnc(NC2=NCCCCC2)s1 : 0
O=S(=O)(c1cccc2c(S(=O)(=O)N3CCCC3)cccc12)N1CCCC1 : 0
CC(C)OC(=O)c1ccc(NC(=O)C2C3CC4OC(=O)C2C4C3)cc1 (stereo unspecified) : 7

For each of the items listed, what is its inhibition?
1. CCN(CC)CCNC(=O)c1cc(S(C)(=O)=O)ccc1OC
2. CCc1ccc(C=NC23CN4CN(CN(C4)C2)C3)s1
3. O=C(CN1CCSCC1)N1CCc2[nH]c3ccc(Br)cc3c2C1
4. Cc1cc(C)nc(N2CCC(C(=O)Nc3ccc(Oc4ccccc4)cc3)CC2)n1
5. CCOc1cc(-c2nc(-c3ccc(C)nc3OCC)no2)cc(OCC)c1OCC

1. 0
2. 0
3. 0
4. 0
5. 0

====

# TESTED_TARGET: Pantothenate synthetase (Mycobacterium tuberculosis (strain ATCC 25618 / H37Rv))
# TEST_SUMMARY: Coupled enzyme confirmation of inhibitors against recombinant Mtb PanC (AID 375);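 further: 0% = full reaction with vehicle and 100% = no enzyme background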
# CONDITION: coupled enzyme assay; at 10 µM, stronger effect = higher value
REPORTED_PROPERTY: inhibition (%)
Give bare numbers, in %.

CN1C(=O)CC(C(=O)Nc2ccc(F)cc2)SC1=Nc1ccc2c(c1)OCO2 (configuration not stated) : 0
O=C(NC1CCCC1)C1CC1c1ccccc1 (configuration not stated) : 0
Cc1ccc(-c2nnc3c4ccccc4c(C)nn23)cc1NC(=O)c1ccco1 : 0

For each of the items listed, what is its inhibition?
1. O=C(NC1CCCCC1)C1CC(O)CN1C(=O)OCc1ccccc1 (configuration not stated)
2. COc1cc(C(=O)OC(C)CN2CCCC2)cc(OC)c1OC (configuration not stated)

0
4

====

# TEST_SUMMARY: H69AR cell proliferation blockers – human, duplicate replicates, primary screen (AID 580);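 further: 100% = mean luminescence of untreated wells and 0% = no signal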
# CONDITION: H69AR lung tumor cells viability, ATP luminescence, 72 h; at 10 µM; stronger effect = lower value
Task for the reader: assign each of the following compounds its reported viability.
Numbers only, in %.

The following compounds have reported results that may help.
COc1ccccc1OCCCn1cc(C(=O)c2ccco2)c2ccccc21 : 77.5
CC(C)=CCSc1nnc([C@@H](N)Cc2c[nH]c3ccccc23)o1 : 94
Cc1cc(NC(=O)COC(=O)c2c(C)nn(Cc3ccccc3)c2Cl)no1 : 105

For each of the items listed, what is its viability?
1. CCNc1ccc(P(=S)(N(C)C)N(C)C)cc1
2. CNCC(O)c1ccc(O)cc1 (stereo unspecified)
3. N#Cc1ccccc1Cn1cc(C(=O)C2CC2)c2ccccc21
4. O=C1C2CCCN2C(c2ccc(Cl)c(Cl)c2)N1c1ccccn1 (stereo unspecified)
5. O=c1[nH]c(=O)n(Cc2ccc(F)cc2)c(O)c1C=NCCCN1CCOCC1
6. CN(C)CCN=Cc1c(O)n(-c2cccc3ccccc23)c(=O)[nH]c1=O
7. CCCCCCC(N)CC(=O)O (stereo unspecified)

88.2
102
59.4
97.4
95.5
105
94.8

For record NC(=O)CSP(=O)(c1ccccc1)c1ccccc1 the listed viability is 102

====

# TESTED_TARGET: Pantothenate synthetase (Mycobacterium tuberculosis (strain ATCC 25618 / H37Rv)) (UniProt P9WIL5)
# TEST_SUMMARY: Coupled enzyme confirmation of inhibitors against recombinant Mtb PanC (AID 375);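 further: 0% = full reaction with vehicle and 100% = no enzyme background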
# CONDITION: coupled enzyme assay; at 10 µM, stronger effect = higher value
Calls of active or inactive are those of the source. How the calls were made is not given here.
Task for the reader: assign each of the following molecules its reported inhibition.

The following molecules have reported results that may help.
O=C(CCOc1ccccc1)NCc1ccccc1 : 0% (inactive)
Cc1ccc(C2SCC(=O)Nc3c2c(=O)[nH]n3C2CCOC(C)(C)C2)cc1 (stereo not drawn) : 0% (inactive)
COc1cccc(NC(=O)CSc2nnc(-c3cc(-c4ccccn4)nc4ccccc34)o2)c1 : 2% (inactive)
COC(=O)c1cccc(S(=O)(=O)N2CCN(c3nc4ccccc4s3)CC2)c1 : 2% (inactive)
COc1ccc(CC(=O)N2CCOCC2)cc1OC : 2% (inactive)

For each of the items listed, what is its inhibition?
1. NNC(=O)c1ccncc1
2. COC(=O)c1c(NC(=O)CSc2nnnn2C)sc(C)c1C
3. CC(C)(C)NC(=O)Cn1nnc(-c2cccs2)n1

1: 0% (inactive); 2: 0% (inactive); 3: 5% (inactive)

For each of the items listed, what is its inhibition?
1. c1ccc(-c2cc(N3CCCCC3)ncn2)cc1
2. CCOC(=O)C1CCN(c2c(N(C)Cc3ccco3)c(=O)c2=O)CC1
3. Cc1onc(-c2ccccc2)c1C(=O)Nc1sc2c(c1C(N)=O)CCC2
4. CC(C)N=c1cc2n(-c3ccc(Cl)cc3)c3ccccc3nc-2cc1Nc1ccc(Cl)cc1
5. COc1ccc(N2CCN(c3nc4c(c(=O)[nH]c(=O)n4C)n3CCCc3ccccc3)CC2)cc1

0% (inactive)
0% (inactive)
5% (inactive)
0% (inactive)
13% (inactive)

For each of the items listed, what is its inhibition?
1. O=C(c1cccs1)N1CCN=C1SCc1ccccc1
2. COc1cccc(OCC(O)CN2CCN(CCO)CC2)c1 (stereo not drawn)
3. CCC(C)(C)NC(=O)C(OC(=O)c1ccco1)c1ccccc1OC (stereo not drawn)
4. CCCCCn1c(CCNC(=O)CCC)nc2ccccc21
5. CNC(=O)CSc1nnc(-c2cc(C)cc(C)c2)o1

1. 4% (inactive)
2. 0% (inactive)
3. 0% (inactive)
4. 0% (inactive)
5. 7% (inactive)

====

# TEST_SUMMARY: MRP1 drug-resistance reversers in H69AR cells – cell-based, doxorubicin co-treatment, pilot screen (AID 601)
# CONDITION: H69AR cells + 2 uM doxorubicin, CellTiter-Glo, 72 h; measured here: viability with 2 uM doxorubicin; at 10 µM; stronger effect = lower value
Response field label: string, one of Criterion met (viability strictly below 90%) or Criterion not met.

Cc1c2ccncc2c(C)c2c1[nH]c1ccccc12 : Criterion met
Cc1cnn(C2CCN(C)CC2)c1N : Criterion not met
CC1=C(C(=O)N2CCC3(CC2)OCCO3)C2(CCC(C)CC2)OC1=O (centres undefined) : Criterion not met
Cc1oc2ccc(OC(=O)N(C)C)cc2c1C(=O)OC(C)C : Criterion not met
Cc1nc2ccccc2c(=O)n1-c1ccc(F)cc1 : Criterion met
O=C1OCCC1NC1=NCCC1 (centres undefined) : Criterion met
CN1C[C@H](CNC(=O)OCc2ccccc2)C[C@@H]2c3cccc4c3c(cn4C)C[C@H]21 : Criterion met
COc1ccc(CC2C(=O)NC(=O)NC2=O)c(OC)c1 : Criterion not met
Nc1ccc(C2(c3ccc(N)cc3)CN3CCC2CC3)cc1 : Criterion not met
CC(=O)C1C(=O)NC23CCCCC2C1c1ccccc1O3 (centres undefined) : Criterion not met

Here's an entry: CN1CCN(C(=O)OC2c3nccnc3C(=O)N2c2ccc(Cl)cn2)CC1 (centres undefined) . Is its viability below 90%?
Criterion not met

====

# TESTED_TARGET: Pantothenate synthetase (Mycobacterium tuberculosis (strain ATCC 25618 / H37Rv)) (UniProt P9WIL5)
# TEST_SUMMARY: Coupled enzyme confirmation of inhibitors against recombinant Mtb PanC (AID 375);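 further: 0% = full reaction with vehicle and 100% = no enzyme background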
# CONDITION: coupled enzyme assay; at 10 µM, stronger effect = higher value
Task for the reader: assign each of the following molecules its reported inhibition.
Numbers only, in %.

The following molecules have reported results that may help.
Cc1cc(Nc2ccccc2)n(-c2ccccc2)n1 : 3
Cc1cc(=O)n2nc(N3CCCC(C(=O)N4CCc5ccccc54)C3)sc2n1 (centres undefined) : 4
CC1=C(C(=O)Nc2ccccc2C)C2(CCCC2)C(C(N)=O)C(=O)N1 (centres undefined) : 0
CCC(C)OC(=O)c1[nH]c2c(c1C)C(=O)CC(c1ccc(N(C)C)cc1)C2 (centres undefined) : 0
Cn1c(SCc2c(F)cccc2Cl)nnc1-c1cccs1 : 0
CC1(C2(O)CC(c3ccccc3)ON2)CCCCC1 (centres undefined) : 2

For each of the items listed, what is its inhibition?
1. COc1ccc(S(=O)(=O)N2CCCC2C(=O)Nc2ccc(C)cc2)cc1 (centres undefined)
2. CC(C)=CC(=O)OCC(=O)NC(=O)NC(C)(C)C
3. CC(O)CN(Cc1cccc(Cl)c1)CC(C)O (centres undefined)

1. 0
2. 0
3. 5
